Let's go through some recorded pIC50 values for GST tagged IRAK4 (Homo sapiens (Human), UniProt Q9NWZ3) together.
pIC50: −log10 of the molar value. Counter-ions that a name gives are not always drawn.
metricName: pIC50

>  <compound>
O=C(Nc1cscc1Cl)c1csc2ncc(N3C[C@@H]4CC[C@H]3CN4)nc12 (single isomer, unassigned) [Example 108, trifluoroacetate]

>  <pIC50>
6.51

$$$$
>  <compound>
N[C@H]1CCCC[C@H]1Nc1cnc2scc(C(=O)Nc3ccccc3Cl)c2n1 [Example 92]

>  <pIC50>
9.10

$$$$
>  <compound>
O=C(Nc1ccsc1C(F)(F)F)c1csc2ncc(N3C[C@@H]4CC[C@H]3CN4)nc12 (single isomer, unassigned) [Example 74]

>  <pIC50>
5.44

$$$$
>  <compound>
O=C(Nc1cscc1Cl)c1csc2ncc(N3C[C@H]4CC[C@@H]3CN4)nc12 (single isomer, unassigned) [Example 109, trifluoroacetate]

>  <pIC50>
6.98

$$$$
>  <compound>
Cn1cc(NC(=O)c2csc3ncc(N4C[C@H]5CC[C@@H]4CN5)nc23)c(Cl)n1 (single isomer, unassigned) [Example 17, trifluoroacetate]

>  <pIC50>
7.82

$$$$
>  <compound>
N#Cc1sccc1NC(=O)c1csc2ncc(N[C@@H]3CCCC(F)(F)[C@@H]3N)nc12 [Example 78]

>  <pIC50>
5.44

$$$$

P: N[C@H]1CCCC[C@H]1Nc1cnc2scc(C(=O)Nc3cscc3Br)c2n1 [Example 53, trifluoroacetate]
Q: N#Cc1sccc1NC(=O)c1csc2ncc(N3CCCNCC3)nc12 [Example 72, trifluoroacetate]
Quick one: lower pIC50, P or Q ? Reply briefly: the label of your chosen item.
Q
(Q: 6.37, P: 9.22)

* * *

target: GST tagged IRAK4 (Homo sapiens (Human), UniProt Q9NWZ3)
Sequence (Q9NWZ3 whole entry): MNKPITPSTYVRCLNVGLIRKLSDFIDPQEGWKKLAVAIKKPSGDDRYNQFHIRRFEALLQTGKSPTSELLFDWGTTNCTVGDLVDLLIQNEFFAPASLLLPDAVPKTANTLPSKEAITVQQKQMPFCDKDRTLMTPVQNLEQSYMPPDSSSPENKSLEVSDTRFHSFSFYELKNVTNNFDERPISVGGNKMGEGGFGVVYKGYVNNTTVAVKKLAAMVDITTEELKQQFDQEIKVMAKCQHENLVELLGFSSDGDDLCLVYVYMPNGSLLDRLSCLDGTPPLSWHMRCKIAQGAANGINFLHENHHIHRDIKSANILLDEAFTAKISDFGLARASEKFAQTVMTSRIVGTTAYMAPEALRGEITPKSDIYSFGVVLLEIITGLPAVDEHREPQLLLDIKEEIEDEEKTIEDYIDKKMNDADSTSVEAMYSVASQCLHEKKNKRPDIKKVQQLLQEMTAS
pIC50: −log10 of the molar value. Structures can show the parent of a compound that is named as a salt.
metricName: pIC50

Known pIC50 results, listed for orientation:
>  <compound>
Cn1cc(NC(=O)c2csc3ncc(N4CCCNCC4)nc23)c(C(F)F)n1 [Example 14, trifluoroacetate]

>  <assayedTarget>
GST tagged IRAK4 (Homo sapiens (Human), UniProt Q9NWZ3)

>  <pIC50>
8.30

$$$$
>  <compound>
Cn1cc(NC(=O)c2csc3ncc(NC4CCCCNC4)nc23)c(C(F)(F)F)n1 (stereo not shown) [Example 15, trifluoroacetate]

>  <assayedTarget>
GST tagged IRAK4 (Homo sapiens (Human), UniProt Q9NWZ3)

>  <pIC50>
8.40

$$$$
>  <compound>
N#Cc1cscc1NC(=O)c1csc2ncc(N3C[C@H]4CC[C@@H]3CN4)nc12 (single isomer, unassigned)

>  <assayedTarget>
GST tagged IRAK4 (Homo sapiens (Human), UniProt Q9NWZ3)

>  <pIC50>
6.66

$$$$

I: Cn1cc(NC(=O)c2csc3ncc(N[C@@H]4CCCC[C@@H]4N)nc23)c(C(F)F)n1 [Example 25, trifluoroacetate]
II: N[C@H]1CCCC[C@H]1Nc1cnc2scc(C(=O)Nc3ccccc3C(F)F)c2n1 [Example 102, trifluoroacetate]
Please state the entry with greater pIC50 among I and II . Let me know the label of the one you choose.
I
(I: 9.70, II: 7.60)

a: N#Cc1ccccc1NC(=O)c1csc2ncc(N3CCNCC4(CC4)C3)nc12 [Example 83, trifluoroacetate]
b: N[C@@H]1[C@H](Nc2cnc3scc(C(=O)Nc4ccsc4Br)c3n2)CCCC1(F)F
Of the pair a and b , name the member with the lesser recorded pIC50. In your reply, give the label of the chosen option.
b
